Value source: paper PMC3116947

- SYSTEM_TESTED: Gab1 G2 peptide (Homo sapiens)
- PROTOCOL_DETAILS: ITC
OUTCOME_MEASURE: Kd
State the value with its unit after it.

>>> print(df.to_string())
                                     binder  result
0  Grb2 cSH3, P62993 (protein) QQPTYVQALFDFDPQADGELGFRRGDFIHVMDNSDPNWWKGACHGQTGMFPRNYVTPVNR  158 µM

# ---- query binder ----
Return reported Kd; argument: Grb2 cSH3, P62993 (protein) QQPTYVQALFDFDPQEDGELGFRRGDFIHVMDNSDPNWWKGACHGQTGMFPRNYVTPVNR
42 µM
